# target entity: human OX2R (Homo sapiens, UniProt O43614)
# Construct: expressed in transfected cells; host or cells: CHO (Chinese hamster ovary) cells, line CHOOX2R, co-expressing NFAT-luciferase
# Sequence (O43614 whole entry): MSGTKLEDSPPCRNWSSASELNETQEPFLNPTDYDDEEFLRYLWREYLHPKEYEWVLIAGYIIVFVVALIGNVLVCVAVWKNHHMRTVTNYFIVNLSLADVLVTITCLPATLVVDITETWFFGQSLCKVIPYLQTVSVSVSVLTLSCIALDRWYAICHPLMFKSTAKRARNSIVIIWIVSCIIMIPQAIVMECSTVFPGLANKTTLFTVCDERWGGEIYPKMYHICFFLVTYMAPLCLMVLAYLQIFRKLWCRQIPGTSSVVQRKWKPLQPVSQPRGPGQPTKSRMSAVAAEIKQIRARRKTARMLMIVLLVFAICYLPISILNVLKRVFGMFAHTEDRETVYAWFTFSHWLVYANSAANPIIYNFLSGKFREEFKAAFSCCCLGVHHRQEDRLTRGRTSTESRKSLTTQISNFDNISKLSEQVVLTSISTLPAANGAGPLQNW
# assay comment: Agonist activity against OX2R: intracellular calcium (Fura-2AM, FDSS7000) in CHOOX2R cells
# Format: cell-based
# reported conditions: test compound 1.0 μM; relative to orexin-A as full agonist (100%)
measure name: Response (%) OX2R

I: COc1ccc(-c2cccc(C(=O)N(C)C)c2)cc1S(=O)(=O)Nc1cccc(N2CCCN(c3cccc(N(C)C)c3)C2=O)c1
II: COc1ccc(-c2cccc(C(=O)N(C)C)c2)cc1S(=O)(=O)Nc1cccc(NS(=O)(=O)N(C)C)c1
Task: Could you tell me which of I and II has the lower Response (%) OX2R reading? Mark your answer with the label of the selected entry.
Output: II
(II: 10%, I: 76%)

a: COc1ccc(-c2cccc(C(=O)N(C)C)c2)cc1S(=O)(=O)Nc1cccc(/N=N/c2ccc(N(C)C)cc2CO)c1
b: COc1ccc(-c2cccc(C(=O)N(C)C)c2)cc1S(=O)(=O)Nc1ccc(NC(=O)Nc2cccc(N(C)C)c2)cc1
Task: Which value of Response (%) OX2R is numerically greater: that of a or that of b ? Mark your answer with the label of the selected entry.
Output: a
(a: 84%, b: 7%)
